Give self-cleavage for every item shown.
B1: CPEB3 Ribozyme (parent)
chain: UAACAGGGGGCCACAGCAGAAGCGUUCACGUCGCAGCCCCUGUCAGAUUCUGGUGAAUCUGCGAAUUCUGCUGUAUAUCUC

Variants of: B1
Experiment: self-cleavage, relative activity (ratio to wild type); higher = more cleavage; in vitro, sequencing
Answers are plain numbers.

Quick request: self-cleavage for each listed item, please.
1. A56G
2. C11A U72C
3. U48G U51C
4. U43C A65G
5. G55C U72A
6. A2G C12G

Reply text:
1. 0.91
2. 0.52
3. 0.53
4. 0.31
5. 0.4
6. 0.38
